Values compiled from paper PMC7718258.

# test-target: T1, mjCgi121;mjBud32 (Methanocaldococcus …, UniProt Q57646;Q58530 1-145;333-535, |)
# T1 sequence 1: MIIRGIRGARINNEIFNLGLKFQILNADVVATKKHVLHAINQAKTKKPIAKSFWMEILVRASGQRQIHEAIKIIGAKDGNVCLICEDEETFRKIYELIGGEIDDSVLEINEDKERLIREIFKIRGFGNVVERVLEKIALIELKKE
# T1 sequence 2: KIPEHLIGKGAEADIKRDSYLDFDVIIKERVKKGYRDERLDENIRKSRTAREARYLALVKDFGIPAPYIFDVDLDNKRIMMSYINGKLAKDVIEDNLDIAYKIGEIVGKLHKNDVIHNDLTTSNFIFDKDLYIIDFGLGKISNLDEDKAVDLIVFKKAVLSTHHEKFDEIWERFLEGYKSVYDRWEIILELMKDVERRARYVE
# protocol: fluorescence polarization; 20 mM HEPES pH 7.5, 100 mM NaCl, 2 mM DTT; filter binding 50 nM 32P-tRNA, 1 h, room temperature; FP 50 nM 647-CCA; NMR 25 C with 10% D2O
# condition-description: protein: recombinant;recombinant; tags: GST removed by TEV;His6 removed by TEV; copies: 1;1; label: 5' Alexa-647; single strand
property-label: pKd
Here pKd is given on a logarithmic scale as minus log10 of the concentration in mol/L.

Prompt line: For the binder CCGCCA (ssRNA) [647-CCA] , what pKd is on record?
Response line: 6.64
